B1: r16_88_TrROS_Hall (parent)
chain: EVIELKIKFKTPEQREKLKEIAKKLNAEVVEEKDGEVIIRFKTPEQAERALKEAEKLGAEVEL

# Variants of: B1
# Test details: folding stability dG (cDNA display proteolysis); higher = more stable
# Measurement parameters: PBS, room temperature
Experimental readout: folding stability dG (kcal/mol)
Could you give me the number in kcal/mol? Just the number is fine.

> print(dat)
   variant.description  endpoint.value
1                 R40D            3.83
2                 K24P            3.96
3                  V2H            4.34
4                 E32M            4.33
5                 L25A            4.05

Query: folding stability dG; subject: `K6E`
3.75

Query: folding stability dG; subject: `L25M`
4.28

Where do these numbers come from? They come from the MegaScale stability set (Tsuboyama et al. 2023).
